# protocolText: Terminal half-life in human serum at 1 g, iv administered every 12 hrs
# Assay type: ADME, organism-based
measurementLabel: half-life (h)
Kindly answer with a numeric value in h, unit omitted.

// half-life lookup, key: CN[C@H](CC(C)C)C(=O)N[C@H]1C(=O)N[C@@H](CC(N)=O)C(=O)N[C@H]2C(=O)N[C@H]3C(=O)N[C@H](C(=O)N[C@H](C(=O)O)c4cc(O)cc(O)c4-c4cc3ccc4O)[C@H](O)c3ccc(c(Cl)c3)Oc3cc2cc(c3O[C@@H]2O[C@H](CO)[C@@H](O)[C@H](O)[C@H]2O[C@H]2C[C@](C)(N)[C@H](O)[C@H](C)O2)Oc2ccc(cc2Cl)[C@H]1O
4.8

* * *

# protocolText: Terminal half-life in New Zealand White rabbit at 1 g, iv administered every 12 hrs
# Assay type: ADME, organism-based, Oryctolagus cuniculus
# conditionInfo: in vivo
measurementLabel: half-life (h)
Kindly answer with a numeric value in h, unit omitted.

// half-life lookup, key: CN[C@H](CC(C)C)C(=O)N[C@H]1C(=O)N[C@@H](CC(N)=O)C(=O)N[C@H]2C(=O)N[C@H]3C(=O)N[C@H](C(=O)N[C@H](C(=O)O)c4cc(O)cc(O)c4-c4cc3ccc4O)[C@H](O)c3ccc(c(Cl)c3)Oc3cc2cc(c3O[C@@H]2O[C@H](CO)[C@@H](O)[C@H](O)[C@H]2O[C@H]2C[C@](C)(N)[C@H](O)[C@H](C)O2)Oc2ccc(cc2Cl)[C@H]1O
1.3

* * *

# protocolText: Plasma protein binding in New Zealand White rabbit plasma at 6 mg/kg, iv administered every 24 hrs
# Assay type: ADME, organism-based, Oryctolagus cuniculus
# Design: dose 6 mg/kg, route intravenous
# conditionInfo: read-out: PPB (converted)
measurementLabel: fraction unbound at 24 h
Please reply with the number alone, leaving off any unit.

// fraction unbound at 24 h lookup, key: CCCCCCCCCC(=O)N[C@@H](Cc1c[nH]c2ccccc12)C(=O)N[C@H](CC(N)=O)C(=O)N[C@@H](CC(=O)O)C(=O)N[C@@H]1C(=O)NCC(=O)N[C@@H](CCCN)C(=O)N[C@@H](CC(=O)O)C(=O)N[C@H](C)C(=O)N[C@@H](CC(=O)O)C(=O)NCC(=O)N[C@H](CO)C(=O)N[C@@H]([C@H](C)CC(=O)O)C(=O)N[C@@H](CC(=O)c2ccccc2N)C(=O)O[C@@H]1C
0.1

* * *

# protocolText: Cmin in New Zealand White rabbit infected with methicillin-resistant Staphylococcus aureus after 24 hrs
# Assay type: ADME, organism-based, Oryctolagus cuniculus
# conditionInfo: in vivo, read-out: Cmin
measurementLabel: concentration at 24 h (ng/mL)
Kindly answer with a numeric value in ng/mL, unit omitted.

// concentration at 24 h lookup, key: CN[C@H](CC(C)C)C(=O)N[C@H]1C(=O)N[C@@H](CC(N)=O)C(=O)N[C@H]2C(=O)N[C@H]3C(=O)N[C@H](C(=O)N[C@H](C(=O)O)c4cc(O)cc(O)c4-c4cc3ccc4O)[C@H](O)c3ccc(c(Cl)c3)Oc3cc2cc(c3O[C@@H]2O[C@H](CO)[C@@H](O)[C@H](O)[C@H]2O[C@H]2C[C@](C)(N)[C@H](O)[C@H](C)O2)Oc2ccc(cc2Cl)[C@H]1O
20000

* * *

# protocolText: AUC in human serum at 6 mg/kg, iv administered every 24 hrs
# Type: ADME, organism-based
# Parameters: dose 6 mg/kg, route intravenous
measurementLabel: AUC at 24 h (µg·h/mL)
Kindly answer with a numeric value in µg·h/mL, unit omitted.

// AUC at 24 h lookup, key: CCCCCCCCCC(=O)N[C@@H](Cc1c[nH]c2ccccc12)C(=O)N[C@H](CC(N)=O)C(=O)N[C@@H](CC(=O)O)C(=O)N[C@@H]1C(=O)NCC(=O)N[C@@H](CCCN)C(=O)N[C@@H](CC(=O)O)C(=O)N[C@H](C)C(=O)N[C@@H](CC(=O)O)C(=O)NCC(=O)N[C@H](CO)C(=O)N[C@@H]([C@H](C)CC(=O)O)C(=O)N[C@@H](CC(=O)c2ccccc2N)C(=O)O[C@@H]1C
974
